Cited source: the Immune Epitope Database (IEDB)

Listed next: entries and their corresponding log10 IC50.
Target: HLA-B*53:01
Assay: IEDB peptide-MHC binding, purified MHC/competitive/radioactivity; bounds were set here for any values at or beyond the usual limits of such assays
Conditions: source organism: Bordetella pertussis
Hi team, quick reminder: these entries are log10 of IC50 (µM).

* GLYQTYTEW | 1.84
* APQAAPLSI | 1.63
* TPFDIKLKE | 1.54
* LAWALMLAC | 0.82
* TFTGKVTNG | 1.60

log10 IC50 lookup needed for "YYDYEDATF" , thanks. 1.84

---

Target: HLA-B*07:02
Test: IEDB peptide-MHC binding, purified MHC/competitive/radioactivity; bounds were set here for any values at or beyond the usual limits of such assays
Details: source organism: Bordetella pertussis
measure: pIC50
Note on pIC50: it is the negative log10 of concentration, concentration in mol/L.

• APQAAPLSI = 5.66

Below: the item to evaluate.
What measured pIC50 goes with "SPRRARRAL" ? 7.86

---

Target: HLA-B*44:03
Experiment: IEDB peptide-MHC binding, purified MHC/competitive/radioactivity; bounds were set here for any values at or beyond the usual limits of such assays
Settings: source organism: Bordetella pertussis
measure: pIC50
The meaning of pIC50 here: minus log10 of the concentration in molar units.

* IESKISQSV | 4.40

Please look up its pIC50: "QQVQVLQRQ" 4.80

---

Molecular target: HLA-A*02:01
Experiment: IEDB peptide-MHC binding, purified MHC/competitive/radioactivity; bounds were set here for any values at or beyond the usual limits of such assays
Conditions: source organism: Bordetella pertussis
measure: IC50 (nM)
# output: bare number, implied unit nM

- VLAPRLYLT: 7980
- YQTYTEWSV: 384

Reported IC50, sequence "LAMPWTFHA" : ____ 1170

// query IC50 value for entry "ALMLACTGL" 10800

Fill in the blank: the reported IC50 of "LLNAGGTLL" is ____. 2570

---

Measured pIC50 by item
Molecular target: HLA-B*35:01
Assay: IEDB peptide-MHC binding, purified MHC/competitive/radioactivity; bounds were set here for any values at or beyond the usual limits of such assays
Details: source organism: Bordetella pertussis
// scale note: pIC50 = -log10(conc_M); give the bare number

- LANDGTIVI: 5.23
- AAGFDPEVQ: 4.49
- LAAIASAAH: 4.30

Let's switch to this sequence now.
GET /values?readout=pIC50&item= "LAPTVGVAF" 5.12

---

Target: HLA-B*57:01
Experiment: IEDB peptide-MHC binding, purified MHC/competitive/radioactivity; bounds were set here for any values at or beyond the usual limits of such assays
Details: source organism: Bordetella pertussis
measure: IC50 (µM)
Field format: number, assumed µM, no unit text.

Sample answers from the record:
• GLYQTYTEW = 41.4
• ISVRVHVSK = 2.74

Consider the record given below.
Reported IC50, sequence "ITNKRAALI" : ____ 40
